system: Mus musculus; experiment: Inhibition of hepatic cholesterol biosynthesis in NMRI mouse at 3 mg/kg, po administered 1 hr before administering [14C]mevalonate as substrate measured after 10 mins; type: functional
Give measured inhibition in vivo at 3 mg/kg for each item. Keep answers brief.
Answers are plain numbers, in %.

COc1cccc([C@@H]2CN(CC(=O)N3CCC(C(=O)O)CC3)C(=O)[C@H](CC(C)C)c3ccc(Cl)cc32)c1OC    47
COc1ccccc1[C@H]1CN(CC(=O)N2CCC(C(=O)O)CC2)C(=O)[C@H](CC(C)C)c2ccc(Cl)cc21 (racemic)    39
CC(C)C[C@H]1C(=O)N(CC(=O)N2CCC(CC(=O)O)CC2)C[C@H](c2ccccc2Cl)c2cc(Cl)ccc21 (racemic)    25

Q: Endpoint output: inhibition in vivo at 3 mg/kg of CC(C)C[C@H]1C(=O)N(CC(=O)N2CCC(C(=O)O)CC2)C[C@H](c2ccccc2Cl)c2cc(Cl)ccc21 (racemic) . Value?
Ans: 25

====

Give measured IC50 for each item. Keep answers brief.
Target: Squalene synthase (Homo sapiens, UniProt P37268)
Sequence (P37268 whole entry): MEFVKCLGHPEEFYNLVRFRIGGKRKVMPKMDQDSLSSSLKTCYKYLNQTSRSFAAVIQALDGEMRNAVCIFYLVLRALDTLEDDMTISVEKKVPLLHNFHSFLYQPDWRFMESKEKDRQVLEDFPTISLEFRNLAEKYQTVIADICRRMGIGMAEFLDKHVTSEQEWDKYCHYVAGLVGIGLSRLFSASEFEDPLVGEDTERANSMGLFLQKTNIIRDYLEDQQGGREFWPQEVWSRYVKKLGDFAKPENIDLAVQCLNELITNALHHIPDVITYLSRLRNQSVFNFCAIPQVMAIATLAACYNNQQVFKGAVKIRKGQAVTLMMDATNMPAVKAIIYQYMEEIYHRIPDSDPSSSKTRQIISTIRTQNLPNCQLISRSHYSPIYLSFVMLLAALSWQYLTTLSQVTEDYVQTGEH

Illustrative cases are given below, each with its answer.
CC(C)(O)C[C@H]1C(=O)N(CC(=O)O)C[C@H](c2ccccc2Cl)c2cc(Cl)ccc21 (racemic)    > 20 µM
COc1cccc([C@H]2CN(CC(=O)N3CCC(C(=O)O)CC3)C(=O)[C@@H](CC(C)C)c3ccc(Cl)cc32)c1OC    > 20 µM
CC(C)C[C@H]1C(=O)N(CC(=O)O)C[C@H](c2ccccc2Cl)c2ccccc21 (racemic)    > 20 µM
COc1cccc([C@@H]2CN(CC(=O)N3CCC(C(=O)O)CC3)C(=O)[C@H](CC(C)C)c3ccc(Cl)cc32)c1OC    0.22 µM
Cc1ccc2c(c1)[C@@H](c1ccccc1Cl)CN(CC(=O)O)C(=O)[C@@H]2CC(C)C (racemic)    > 20 µM
CC(C)C[C@H]1C(=O)N(CC(=O)O)C[C@H](c2ccccc2Cl)c2cc(Cl)ccc21 (racemic)    3.3 µM
CCOC(=O)CN1C[C@H](c2ccccc2Cl)c2cc(Cl)ccc2[C@@H](CC(C)C)C1=O (racemic)    > 20 µM

Lab note: next compound to report on.
Q: Hello, I am looking for reported IC50 with Squalene synthase (Homo sapiens, UniProt P37268) for COc1cccc([C@H]2CN(CC(=O)O)C(=O)[C@H](CC(C)C)c3ccc(Cl)cc32)c1OC (racemic) . Could you help?
Ans: 1.2 µM

====

assay: Metabolic stability in human liver microsomes assessed as compound remaining after 60 mins; format: ADME, Microsome; settings: read-out: Stability
Threshold 60%: remaining at 1 h strictly smaller gives yes (1), otherwise no (0).

Illustrative cases are given below, each with its answer.
COc1cccc([C@@H]2CN(CC(=O)N3CCC(C(=O)O)CC3)C(=O)[C@H](CC(C)C)c3ccc(Cl)cc32)c1OC    no (0)
COc1ccccc1[C@H]1CN(CC(=O)N2CCC(C(=O)O)CC2)C(=O)[C@H](CC(C)C)c2ccc(Cl)cc21 (racemic)    no (0)
COc1cccc([C@H]2CN(CC(=O)N3CCC(C(=O)O)CC3)C(=O)[C@H](CC(C)C)c3ccc(Cl)cc32)c1OC (racemic)    no (0)
COc1ccccc1[C@H]1CN(CC(=O)N2CCCCC2)C(=O)[C@H](CC(C)C)c2ccc(Cl)cc21 (racemic)    yes (1)
CC(C)C[C@H]1C(=O)N(CC(=O)N2CCC(CC(=O)O)CC2)C[C@H](c2ccccc2Cl)c2cc(Cl)ccc21 (racemic)    no (0)

Pending molecule:
Q: Dear reviewer, please state whether CC(C)C[C@H]1C(=O)N(CC(=O)N2CCC(C(=O)O)CC2)C[C@H](c2ccccc2Cl)c2cc(Cl)ccc21 (racemic) has remaining at 1 h strictly beneath 60%.
Ans: yes (1)
